- MEASURED TARGET: human TLR7 (hTLR7) (Homo sapiens)
- Sequence (Q9NYK1 27-1049): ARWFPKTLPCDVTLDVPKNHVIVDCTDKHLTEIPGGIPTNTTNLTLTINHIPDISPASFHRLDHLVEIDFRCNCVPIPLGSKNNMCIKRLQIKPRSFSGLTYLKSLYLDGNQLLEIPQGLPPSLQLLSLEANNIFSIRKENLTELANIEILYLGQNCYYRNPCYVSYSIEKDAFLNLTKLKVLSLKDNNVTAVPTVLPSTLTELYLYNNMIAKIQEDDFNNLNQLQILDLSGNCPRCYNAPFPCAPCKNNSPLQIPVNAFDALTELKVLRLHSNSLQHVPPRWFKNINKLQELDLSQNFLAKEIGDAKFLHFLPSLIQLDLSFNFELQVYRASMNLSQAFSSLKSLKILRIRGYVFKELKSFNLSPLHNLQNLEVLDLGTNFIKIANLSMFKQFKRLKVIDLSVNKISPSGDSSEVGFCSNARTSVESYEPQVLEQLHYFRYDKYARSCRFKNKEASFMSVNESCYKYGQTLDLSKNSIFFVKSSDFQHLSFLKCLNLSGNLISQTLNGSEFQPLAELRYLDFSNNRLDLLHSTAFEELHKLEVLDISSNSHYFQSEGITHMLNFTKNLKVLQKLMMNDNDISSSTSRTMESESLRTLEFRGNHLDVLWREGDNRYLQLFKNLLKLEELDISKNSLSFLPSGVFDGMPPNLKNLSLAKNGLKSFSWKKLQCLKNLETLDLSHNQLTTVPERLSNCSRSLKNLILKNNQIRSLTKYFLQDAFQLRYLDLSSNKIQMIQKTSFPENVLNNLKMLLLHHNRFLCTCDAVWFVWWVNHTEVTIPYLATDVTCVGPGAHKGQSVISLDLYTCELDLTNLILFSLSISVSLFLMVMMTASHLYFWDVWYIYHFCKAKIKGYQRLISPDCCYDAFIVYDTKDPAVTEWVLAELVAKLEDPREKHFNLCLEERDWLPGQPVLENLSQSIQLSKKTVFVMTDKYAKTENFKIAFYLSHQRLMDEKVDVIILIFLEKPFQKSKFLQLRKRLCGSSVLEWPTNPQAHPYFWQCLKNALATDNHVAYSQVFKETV
- MEASUREMENT PROTOCOL: Human TLR7 agonist activity assay (HEK-Blue TLR7 SEAP reporter)
- EXPERIMENTAL CONTEXT: HEK-Blue TLR7 cells, 18 h incubation, Quanti-Blue, OD 620 nm, some values average of multiple measurements

[
  {
    "MOLECULE": "CCCCN(CCO)c1nc(N)nc2cn(Cc3ccc(CNC4COC4)cc3OC)nc12",
    "EC50": "828 nM"
  },
  {
    "MOLECULE": "CCCCN(CCO)c1nc(N)nc2cn(Cc3c(F)cc(C4CCN(C5CCOCC5)CC4)cc3OC)nc12",
    "EC50": "176 nM"
  },
  {
    "MOLECULE": "CCCCN(CCO)c1nc(N)nc2cn(Cc3ccc(CCNC4CCOCC4)cc3OC)nc12",
    "EC50": "1550 nM"
  },
  {
    "MOLECULE": "CCCCN(CCO)c1nc(N)nc2cn(Cc3ccc(CNC4CCOCC4)cc3OC)nc12",
    "EC50": "970 nM"
  },
  {
    "MOLECULE": "CCCCN(CCO)c1nc(N)nc2cn(Cc3cc(OC)c(C4CCN(CC(C)(C)O)CC4)cc3OC)nc12",
    "EC50": "1280 nM"
  },
  {
    "MOLECULE": "CCCCN(CCO)c1nc(N)nc2cn(Cc3ccc(CNC4CCC4)cc3C(F)F)nc12",
    "EC50": "1560 nM"
  },
  {
    "MOLECULE": "CCCCN(CCO)c1nc(N)nc2cn(Cc3ccc(CNC4CCOC(C)C4)cc3OC)nc12 (centres unmarked) [Compound 125]",
    "EC50": "2250 nM"
  },
  {
    "MOLECULE": "CCCCN(CCO)c1nc(N)nc2cn(Cc3ccc(CNC4CCN(C)CC4)c4cccnc34)nc12",
    "EC50": "2090 nM"
  },
  {
    "MOLECULE": "CCCCN(CCO)c1nc(N)nc2cn(Cc3ccc(CNC4CCCOC4)cc3OC)nc12 (centres unmarked) [Compound 104]",
    "EC50": "1750 nM"
  },
  {
    "MOLECULE": "CCCCN(CCO)c1nc(N)nc2cn(Cc3c(F)cc(CN[C@@H]4CCOC4)cc3F)nc12",
    "EC50": "31 nM"
  },
  {
    "MOLECULE": "CCCCN(CCO)c1nc(N)nc2cn(Cc3c(OC)cc(CNC(C)C)cc3OC)nc12",
    "EC50": "1820 nM"
  },
  {
    "MOLECULE": "CCCCN(CCO)c1nc(N)nc2cn(Cc3c(F)cc(CNC4CCOCC4)cc3OC)nc12",
    "EC50": "741 nM"
  },
  {
    "MOLECULE": "CCCCN(CCO)c1nc(N)nc2cn(Cc3c(OC)cc(CNC4CCOCC4)cc3OC)nc12",
    "EC50": "1870 nM"
  },
  {
    "MOLECULE": "CCCCN(CCO)c1nc(N)nc2cn(Cc3ccc(CNC4CCOCC4)c4cccnc34)nc12",
    "EC50": "757 nM"
  },
  {
    "MOLECULE": "CCCCN(CCO)c1nc(N)nc2cn(Cc3ccc(CN4CC5(CCO5)C4)cc3OC)nc12",
    "EC50": "284 nM"
  },
  {
    "MOLECULE": "CCCCN(CCO)c1nc(N)nc2cn(Cc3cc(OC)c(C4CCN(C(C)C)CC4)cc3OC)nc12",
    "EC50": "39 nM"
  },
  {
    "MOLECULE": "CCCCN(CCO)c1nc(N)nc2cn(Cc3ccc(CN4CCN(CCO)CC4)cc3OC)nc12",
    "EC50": "696 nM"
  },
  {
    "MOLECULE": "CCCCNCc1ccc(Cn2cc3nc(N)nc(N(CCO)CCCC)c3n2)c2ncccc12",
    "EC50": "280 nM"
  },
  {
    "MOLECULE": "CCCCN(CCO)c1nc(N)nc2cn(Cc3ccc(CNC4CCCC4)c4cccnc34)nc12",
    "EC50": "1500 nM"
  },
  {
    "MOLECULE": "CCCCN(CCO)c1nc(N)nc2cn(Cc3c(F)cc(C4CCN(CCS(C)(=O)=O)CC4)cc3OC)nc12",
    "EC50": "101 nM"
  },
  {
    "MOLECULE": "CCCCN(CCO)c1nc(N)nc2cn(Cc3ccc(CNC4CCC4)c4scnc34)nc12",
    "EC50": "401 nM"
  },
  {
    "MOLECULE": "CCCCN(c1nc(N)nc2cn(Cc3ccc(CN4CCCCC4)cc3OC)nc12)C(C)CO (centres unmarked) [Compound 50]",
    "EC50": "374 nM"
  },
  {
    "MOLECULE": "CCCCN(CCO)c1nc(N)nc2cn(Cc3ccc(CNC(C)(C)C)cc3OC)nc12",
    "EC50": "969 nM"
  },
  {
    "MOLECULE": "CCCCN(CCO)c1nc(N)nc2cn(Cc3ccc(CNC4CCOC4)cc3OC)nc12 (centres unmarked)",
    "EC50": "430 nM"
  },
  {
    "MOLECULE": "CCCCN(CCO)c1nc(N)nc2cn(Cc3c(F)cc(C4=CCNCC4)cc3OC)nc12",
    "EC50": "688 nM"
  },
  {
    "MOLECULE": "CCCCN(CCO)c1nc(N)nc2cn(Cc3ccc(CNC4CCOCC4)n4ncnc34)nc12",
    "EC50": "1700 nM"
  },
  {
    "MOLECULE": "CCCCN(CCO)c1nc(N)nc2cn(Cc3cc(OC)c(C4CCN(CCOC)CC4)cc3OC)nc12",
    "EC50": "1140 nM"
  },
  {
    "MOLECULE": "CCCCN(CCO)c1nc(N)nc2cn(Cc3c(F)cc(C4CCN(CCO)CC4)cc3OC)nc12",
    "EC50": "551 nM"
  },
  {
    "MOLECULE": "CCCCN(CCO)c1nc(N)nc2cn(Cc3ccc(CN[C@@H]4CCCN(S(C)(=O)=O)C4)c4cccnc34)nc12",
    "EC50": "301 nM"
  },
  {
    "MOLECULE": "CCCCN(CCO)c1nc(N)nc2cn(Cc3ccc(CNC4C[C@@H](C)O[C@@H](C)C4)cc3OC)nc12 (some centres unmarked)",
    "EC50": "694 nM"
  },
  {
    "MOLECULE": "CCCCN(CCO)c1nc(N)nc2cn(Cc3c(OC)cc(CN[C@@H]4CCOC4)cc3OC)nc12",
    "EC50": "1440 nM"
  },
  {
    "MOLECULE": "CCCCN(CCOC)c1nc(N)nc2cn(Cc3ccc(CN[C@@H]4CCOC4)cc3OC)nc12",
    "EC50": "621 nM"
  }
]
